# protocolDescription: folding stability dG unfold from chymotrypsin proteolysis; higher = more stable
measuredMetric: folding stability dG unfold (kcal/mol)
State just the number; it will be interpreted in kcal/mol.

Input SAGGSAGGSAGGPMPVSVSPIGTKVEKTEEPLVVETTTTLSDAEGPPVTTTTTTVTPPSTSAGGSAGGSAGG [r11_129_JUSTAS] . Output folding stability dG unfold: 1.33

Input SAGGMTILFEADSLEEARQAVEDLLRDLGIPAIAERITVEERTFRLPAGPGTRRFVLVTIDLRLEPPSAGGS [r16_587_TrMRF] . Output folding stability dG unfold: 2.52

Input SAGGKPTQTITITLKDGRTLTIKVGQTVTITLDNGKTITVTVKDATITVKDGKVTITVNGKTYTFTVKSAGG [r13_643_TrROS_Hall] . Output folding stability dG unfold: 4.73

Input SAGGSAGGSNNPDKKKKPRYVVIQIELKWYPNPNGQWSPELEITATVPAGDLEDKDDAIKDIISAGGSAGGS [r12_933_TrROS] . Output folding stability dG unfold: 1.29
